Would you mind telling me the reported inhibition at 1 µM of each entry?
Biological target: MDM2 (Homo sapiens)
Sequence (Q00987 whole entry): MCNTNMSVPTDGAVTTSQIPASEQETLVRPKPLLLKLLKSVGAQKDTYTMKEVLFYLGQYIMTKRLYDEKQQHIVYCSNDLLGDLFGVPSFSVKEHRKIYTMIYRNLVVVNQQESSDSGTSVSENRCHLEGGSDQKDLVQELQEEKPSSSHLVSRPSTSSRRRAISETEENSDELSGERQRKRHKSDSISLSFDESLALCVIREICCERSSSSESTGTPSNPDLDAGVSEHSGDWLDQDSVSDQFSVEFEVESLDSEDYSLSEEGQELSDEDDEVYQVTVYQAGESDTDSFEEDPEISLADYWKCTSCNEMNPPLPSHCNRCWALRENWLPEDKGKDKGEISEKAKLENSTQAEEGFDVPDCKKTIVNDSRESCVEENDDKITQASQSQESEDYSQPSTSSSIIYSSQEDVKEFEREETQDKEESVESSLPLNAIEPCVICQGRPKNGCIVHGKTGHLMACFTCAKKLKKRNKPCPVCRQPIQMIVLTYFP
Assay: TR-FRET
Type: binding
Details: read-out: Inhibition rate at 1.0 μmol/L, MDM2
Respond with a number, then the unit of measure.

Q. What reported inhibition at 1 µM corresponds to CCOC(=O)[C@H]1Cc2c(cc([N+](=O)[O-])cc2[N+](=O)[O-])[C@@H](O)[C@@]12C(=O)Nc1cccc(Br)c12 on MDM2 (Homo sapiens)?
A. 66.9%

Q. What reported inhibition at 1 µM corresponds to CCOC(=O)[C@H]1Cc2c(cc([N+](=O)[O-])cc2[N+](=O)[O-])[C@@H](O)[C@@]12C(=O)Nc1ccc(F)cc12 on MDM2 (Homo sapiens)?
A. 81.4%

Q. What reported inhibition at 1 µM corresponds to CCOC(=O)[C@H]1Cc2c(cc([N+](=O)[O-])cc2[N+](=O)[O-])[C@H](O)[C@]12C(=O)Nc1ccc(Br)cc12 on MDM2 (Homo sapiens)?
A. 51.9%

Q. What reported inhibition at 1 µM corresponds to CCOC(=O)[C@H]1Cc2c(cc([N+](=O)[O-])cc2[N+](=O)[O-])[C@H](O)[C@]12C(=O)Nc1ccc([N+](=O)[O-])cc12 on MDM2 (Homo sapiens)?
A. 39.3%

Q. What reported inhibition at 1 µM corresponds to CCOC(=O)[C@H]1Cc2c(cc([N+](=O)[O-])cc2[N+](=O)[O-])[C@H](O)[C@]12C(=O)Nc1cc(Cl)ccc12 on MDM2 (Homo sapiens)?
A. 48.3%

Q. What reported inhibition at 1 µM corresponds to CCOC(=O)[C@H]1Cc2c(cc([N+](=O)[O-])cc2[N+](=O)[O-])[C@@H](O)[C@@]12C(=O)Nc1c(F)cccc12 on MDM2 (Homo sapiens)?
A. 76.5%

====

Target: UniProt Q00987
Experiment: TR-FRET
Format: binding
Settings: read-out: Inhibition rate at 1.0 μmol/L, MDM2
Readout Type: inhibition at 1 µM (%)
Numeric only. Scale: %

Q. May I ask what inhibition at 1 µM has been recorded for CCOC(=O)[C@H]1Cc2c(cc([N+](=O)[O-])cc2[N+](=O)[O-])[C@@H](O)[C@@]12C(=O)Nc1ccc([N+](=O)[O-])cc12 ?
A. 47.7

Q. May I ask what inhibition at 1 µM has been recorded for CCOC(=O)[C@H]1Cc2c(cc([N+](=O)[O-])cc2[N+](=O)[O-])[C@H](O)[C@]12C(=O)Nc1ccc(C)cc12 ?
A. 49.2

Q. May I ask what inhibition at 1 µM has been recorded for CCOC(=O)[C@H]1Cc2c(cc([N+](=O)[O-])cc2[N+](=O)[O-])[C@@H](O)[C@@]12C(=O)Nc1ccc(Cl)cc12 ?
A. 82.6

Q. May I ask what inhibition at 1 µM has been recorded for O=C(c1ccc(F)cc1)[C@H]1Cc2c(cc([N+](=O)[O-])cc2[N+](=O)[O-])[C@H](O)[C@]12C(=O)Nc1ccccc12 ?
A. 36.2

Q. May I ask what inhibition at 1 µM has been recorded for CCOC(=O)[C@H]1Cc2c(cc([N+](=O)[O-])cc2[N+](=O)[O-])[C@@H](O)[C@@]12C(=O)Nc1cc(Br)ccc12 ?
A. 76.7

Q. May I ask what inhibition at 1 µM has been recorded for COc1ccc(C(=O)[C@H]2Cc3c(cc([N+](=O)[O-])cc3[N+](=O)[O-])[C@H](O)[C@]23C(=O)Nc2ccccc23)cc1 ?
A. 26.9
